Hey, just so you know, these numbers are from patent US6057314A.

System: carotid artery in rats
Experiment: FeCl3 induced carotid arterial injury model (arterial thrombosis) in rats, time to occlusion
Format: in vivo, rat (Sprague-Dawley)
Conditions: Table 2; ivb + inf 0.75-50 (iv bolus mg/kg, infusion μg/kg/min)
readout.type: M.O.T (min)+/-sem

Inquiry: Consider the molecule CC12CCC(CCc3ccccc3)C(=O)N1C(C(=O)NC(CCCNC(=N)N)C(=O)c1nc3ccccc3s1)CS2 (centres unmarked) and give its measured M.O.T (min)+/-sem.
Reply text: 23 ± 7 min

Inquiry: Would you mind telling me what M.O.T (min)+/-sem value was observed for N=C(N)NCCCC(NC(=O)[C@@H]1CS[C@@H]2CC[C@@H](Cc3ccccc3)C(=O)N21)C(=O)c1nccs1 (some centres unmarked) ?
Reply text: 22.6 ± 2.6 min

Inquiry: Tell me the measured M.O.T (min)+/-sem of CC12CCC(Cc3ccccc3)C(=O)N1C(C(=O)NC(CCCNC(=N)N)C(=O)c1nccs1)CS2 (centres unmarked) , please.
Reply text: 14.83 ± 0.2 min

Inquiry: Any idea what its M.O.T (min)+/-sem is? The molecule is N=C(N)NCCCC(NC(=O)[C@@H]1CS[C@@H]2CC[C@@H](CCCC3CCCCC3)C(=O)N21)C(=O)c1nccs1 (single isomer, unassigned) [Compound 0265b]
Reply text: 14.83 ± 2.3 min

Inquiry: Given the molecule N=C(N)NCCCC(NC(=O)[C@@H]1CSCC2CC[C@@H](Cc3ccccc3)C(=O)N21)C(=O)c1nccs1 (some centres unmarked) [0925a + b] , what is its reported M.O.T (min)+/-sem?
Reply text: 19.6 ± 0.2 min

Inquiry: Value lookup for M.O.T (min)+/-sem; key = CC12CCC(Cc3ccc4nc(C(F)(F)F)ccc4c3)C(=O)N1C(C(=O)NC(CCCNC(=N)N)C(=O)c1nccs1)CS2 (centres unmarked)
Reply text: 11.33 ± 1.34 min

Inquiry: Could you share which M.O.T (min)+/-sem value was measured for N=C(N)NCCCC(NC(=O)C1CSC2CCC(N3C(=O)c4ccccc4C3=O)C(=O)N21)C(=O)c1nccs1 (single isomer, unassigned) [Compound 0295b] ?
Reply text: 19 ± 2.7 min

Inquiry: Given N=C(N)NCCCC(NC(=O)C1CSC2CCC(N3C(=O)c4ccccc4C3=O)C(=O)N21)C(=O)c1nccs1 (single isomer, unassigned) [Compound 0295a] , state its recorded M.O.T (min)+/-sem.
Reply text: 20 ± 1 min

Inquiry: # input molecule: N=C(N)NCCCC(NC(=O)[C@@H]1CC[C@H]2CN(C(=O)c3ccccc3)CC(=O)N21)C(=O)c1nccs1 (some centres unmarked) ; wanted: its M.O.T (min)+/-sem
Reply text: 45.8 ± 14.2 min

Inquiry: I would be grateful if you could share the reported M.O.T (min)+/-sem for N=C(N)NCCCC(NC(=O)[C@@H]1CS[C@H]2CC[C@@H](Cc3ccccc3)C(=O)N21)C(=O)c1nc2ccccc2s1 (some centres unmarked) .
Reply text: 20.13 ± 3.4 min

Inquiry: Field request: M.O.T (min)+/-sem | item: N=C(N)NCCCC(NC(=O)[C@@H]1CSC[C@H]2CC[C@@H](Cc3ccccc3)C(=O)N21)C(=O)c1nccs1 (single isomer, unassigned) [Compound 0925a]
Reply text: 20.3 ± 3.5 min

Inquiry: So what's the measured M.O.T (min)+/-sem for this one? C[C@]12CC[C@@H](Cc3ccc4nc(C(F)(F)F)ccc4c3)C(=O)N1[C@H](C(=O)NC(CCCNC(=N)N)C(=O)c1nc3ccccc3s1)CS2 (some centres unmarked)
Reply text: 17 ± 2.6 min

Inquiry: Look up M.O.T (min)+/-sem: N=C(N)NCCCC(NC(=O)[C@@H]1CSC[C@H]2CC[C@@H](CCc3ccccc3)C(=O)N21)C(=O)c1nccs1 (single isomer, unassigned) [Compound 0940a]
Reply text: 15.2 ± 0.82 min

Inquiry: Form field: reported M.O.T (min)+/-sem of N=C(N)NCCCC(NC(=O)C1CSC2CCC(NC(=O)CCc3ccccc3)C(=O)N21)C(=O)c1nccs1 (centres unmarked) [Compound 0315b]
Reply text: 30.33 ± 8.4 min

Inquiry: State the recorded M.O.T (min)+/-sem for this entry: N=C(N)NCCCC(NC(=O)[C@@H]1CSCC2CCCC(=O)N21)C(=O)c1nccs1 (some centres unmarked)
Reply text: 15+/-1,3 min

Inquiry: Reported M.O.T (min)+/-sem, molecule N=C(N)NCCCC(NC(=O)[C@@H]1CS[C@@H]2CC[C@@H](CCCC3CCCCC3)C(=O)N21)C(=O)c1nccs1 (single isomer, unassigned) [Compound 0265a] : ____
Reply text: 21.5 ± 10 min

Inquiry: Value lookup for M.O.T (min)+/-sem; key = Cc1cnc(C(=O)C(CCCNC(=N)N)NC(=O)[C@@H]2CC[C@H]3CN(C(=O)CCc4ccccc4)CC(=O)N32)s1 (some centres unmarked)
Reply text: 50 ± 5.86 min
